Test system: NCI/ADR-RES multi-drug resistant ovarian cancer cell line
test method notes: Tumor cell growth inhibition, crystal violet (Example 2)
Assay type: cell-based
measurement conditions: prodrug alone, no UV, read-out: IC50
endpoint name: IC50 (µM)
Lab book: enter the figure in µM, no units written.

The compound COc1cc(COC(=O)N2COC3C(C)OC(OC4CC(O)(C(=O)CO)Cc5c(O)c6c(c(O)c54)C(=O)c4c(OC)cccc4C6=O)CC32)c([N+](=O)[O-])cc1OC (stereo not shown) showed IC50 equal to 3.5

* * *

Test system: NCI/ADR-RES multi-drug resistant ovarian cancer cell line
test method notes: Tumor cell growth inhibition, crystal violet (Example 2)
Format: cell-based
measurement conditions: +UV 10 min, near UV 350 nm, read-out: IC50
endpoint name: IC50 (nM)
Lab book: enter the figure in nM, no units written.

# value of IC50, NCI/ADR-RES multi-drug resistant ovarian cancer cell line, item COc1cc(COC(=O)N2COC3C(C)OC(OC4CC(O)(C(=O)CO)Cc5c(O)c6c(c(O)c54)C(=O)c4c(OC)cccc4C6=O)CC32)c([N+](=O)[O-])cc1OC (stereo not shown) [Photodoxazolidine] = 110
